# Test system: A498 renal
# assay.comment: NCI-60 one-dose screen, 48 h
# condition.label: 10 µM unless noted
Compounds without any hit were thinned out: in the full panel of roughly 83,000, 20% have a hit. Calls of active or inactive are those of the source. How the source made its calls: active means growth percent below 10; inactive means the rest.
Possible outcomes: 1 (yes) = active, 0 (no) = inactive

1) Nc1ncc(-c2cnn(C3CCNCC3)c2)cc1-c1nc2cc(Cl)ccc2o1; 1 (yes)
2) Cc1c(C(N)=O)sc2c1C(=O)N(Cc1ccccc1)C1=NN=C(c3ccc(Cl)cc3)CN12; 0 (no)
3) O=C1NCN(c2ccccc2)C12CCN(CCCC(c1ccc(F)cc1)c1ccc(F)cc1)CC2; 0 (no)
4) O=C(Cc1ccccn1)C(F)(F)C(F)(F)C(F)(F)F; 0 (no)
5) CCCCc1nc(Cl)c(CO)n1Cc1ccc(-c2ccccc2-c2nn[nH]n2)cc1; 0 (no)

---

# Test system: SK-MEL-28 melanoma
# assay.comment: NCI-60 one-dose screen, 48 h (100 = growth as untreated, 0 = no growth, -100 = all killed)
# condition.label: 10 µM unless noted
About 83,000 compounds went through this panel and 20% of them were active in at least one assay; those are over-represented in the sample as a whole.
reported.endpoint: growth (%)

1) Cn1c(=O)c2nc(SCc3ccccc3)n(C)c2n(C)c1=O; 119
2) O=C1/C(=C/c2ccc([N+](=O)[O-])o2)Oc2ccc(Cl)cc21; 11.2
3) COc1ccc2[nH]c(-c3ccccc3)cc2c1; 110
4) N#Cc1ccc(NC(=O)Nc2ccc(Oc3ccc(NC(=O)Nc4ccc(C#N)cc4)cc3)cc2)cc1; 51
5) C/C(=N\N1CC(=O)NC1=O)c1ccc([N+](=O)[O-])o1; 117
6) COC1CC2CCC(C)C(O)(O2)C(=O)C(=O)N2CCCCC2C(=O)OC(C(C)CC2CCC(O)C(OC)C2)CC(=O)C(C)C=C(C)C(O)C(OC)C(=O)C(C)CC(C)/C=C/C=C/C=C1C (centres undefined); 54.1
7) COc1c(O)cc2oc3cc(O)c(CC=C(C)C)c(O)c3c(=O)c2c1C/C=C(\C)CCC=C(C)C; 94.4
8) O=C1C[C@@H]2/C(=C(O)\C=C\c3ccccc3)C(=O)C=C[C@@H]2O1; -23.7
9) CCOC(=O)/C(=C/c1ccccc1)C(=O)c1ccccc1; 94.3
10) CC(C)(C)c1cc(O)c(O)c(C(C)(C)C)c1; 74.9
11) CC[C@]1(O)CC2CN(CCc3c([nH]c4ccccc34)[C@@](C(=O)OC)(c3cc4c(cc3OC)N(C)[C@H]3[C@@](O)(C(=O)OC)[C@H](OC(C)=O)[C@]5(CC)C=CCN6CC[C@]43[C@@H]65)C2)C1 (some centres undefined); 68.1
12) Cn1cnc([N+](=O)[O-])c1S(=O)(=O)Oc1ccc(Cl)cc1; 97.4
13) Cc1ccccc1NC(=O)c1cc2ccccc2cc1O; 38.6
14) CCOc1cc(C(C)(C)C)ccc1C1=N[C@H](c2ccc(Cl)cc2)[C@H](c2ccc(Cl)cc2)N1C(=O)N1CCN(CC#Cc2cccc3c2CN([C@@H]2CCC(=O)NC2=O)C3=O)CC1; 53.4
15) O=C(Nc1ccc(Nc2ccncc2)cc1)c1ccc(Nc2ccnc3ccc([N+](=O)[O-])cc23)cc1[N+](=O)[O-]; 54.6
16) Cc1cc(C)c(OC(=O)CSc2nc3ccccc3c(=O)n2CCc2ccccc2)cc1C; 111
17) COc1cc(OC)c2sc(-c3ccc(-n4cncc4-c4ccc(N)cc4)cc3)nc2c1; 97.5
18) COc1ccc(OC)c(/C=C/c2nc(=S)n(-c3ccc(Cl)cc3)[nH]2)c1; 72.7
19) Cn1cc(-c2nc(-c3c[nH]c4ncc(F)cc34)cs2)c2cccnc21; 111

The values you see were collected from PubChem BioAssay (NCI).
